Tgt: protein on the CEM cell surface that binds L1AD3 (L1AD3 protein receptor, 27-35 kDa) (human)
Positions of bridges follow the written chain, without caps; N, C: chain ends. No end group written: not given here. *: point of attachment. Biotin = O=C1N[C@H]2[C@H](CS[C@H]2CCCCC(=O)*)N1
Measured Metric: Kd (µM)
One number for each entry, in µM.

Provide Kd value for the following binder: Biotin-LKCNKLVPLFYKTC (disulfide 3-14) [biotinylated L1AD3 (btn-…), cyclized]
6
